# maps each entry to its efficacy
Tested on: HCT116
experiment_notes: efficacy (maximum % inhibition of viability vs DMSO); higher = more cytotoxic
assay_conditions: 72 h; ICRF193 0 nM
Structures can show the parent of a compound that is named as a salt.
endpoint_label: efficacy (%)

1. CCCCCCCCCCCCCCCC[n+]1ccccc1 [Cetylpyridinium bromide] ... 90.6
2. CCCCCCCCCCCCCCCCCCNC(=O)OC1CCN(C(=O)OC[C@H](COC(=O)N(Cc2cccc[n+]2CC)C(=O)c2ccccc2OC)OC)CC1 [Minopafant] ... 111
3. CC/C(=C(/CC)c1ccc(O)cc1)c1ccc(O)cc1 [Diethylstilbestrol] ... 52.4
4. C#C[C@]1(O)CC[C@H]2[C@@H]3CCc4cc(OC5CCCC5)ccc4[C@H]3CC[C@@]21C [Quinestrol] ... 55
5. CO[C@@H]1[C@@H](O[C@@H]2O[C@H](C)[C@@H](O[C@H]3C[C@@](C)(O)[C@@H](OC(=O)CC(C)C)[C@H](C)O3)[C@H](N(C)C)[C@H]2O)[C@@H](CC=O)C[C@@H](C)C(=O)/C=C/[C@@H]2O[C@H]2C[C@@H](C)OC(=O)C[C@H]1OC(C)=O [Carbomycin A] ... 93
6. COc1c(OCCCN2CCOCC2)ccc2c1N=C(NC(=O)c1cnc(N)nc1)N1CCN=C21 [Copanlisib] ... 59.1
7. CC1=C(C(=O)OCCN(Cc2ccccc2)c2ccccc2)C(c2cccc([N+](=O)[O-])c2)C(P2(=O)OCC(C)(C)CO2)=C(C)N1 (stereo not drawn) [Efonidipine hydrochloride monoethanolate] ... 41.1
8. CC(C)c1c(C(=O)Nc2ccccc2)c(-c2ccccc2)c(-c2ccc(F)cc2)n1CC[C@@H](O)C[C@@H](O)CC(=O)O [Atorvastatin calcium] ... 60.2
9. Clc1ccc(CO/N=C(\Cn2ccnc2)c2ccc(Cl)cc2Cl)c(Cl)c1 [Oxiconazole nitrate] ... 104
10. COC(=O)[C@H]1[C@H]2C[C@@H]3c4[nH]c5cc(OC)ccc5c4CCN3C[C@H]2C[C@@H](OC(=O)/C=C/c2ccc(O)c(OC)c2)[C@@H]1OC [Rescimetol] ... 101
11. CN(C)c1ccc(C(=C2C=CC(=[N+](C)C)C=C2)c2ccc(N(C)C)cc2)cc1 [Methylrosaniline chloride] ... 89.5
12. O=C(NC1CCN(CCCCC2(C(=O)NCC(F)(F)F)c3ccccc3-c3ccccc32)CC1)c1ccccc1-c1ccc(C(F)(F)F)cc1 [Lomitapide] ... 117
13. CCN(CC)CCNC(=O)c1c(C)[nH]c(/C=C2\C(=O)Nc3ccc(F)cc32)c1C [Sunitinib malate] ... 108

---

Tested on: HCT116
assay_conditions: 72 h; ICRF193 0 nM
# maps each entry to its IC50 cell viability
endpoint_label: IC50 cell viability

1. CCCC(=O)OC[C@@H](OC(=O)CCC)[C@@H](OC(=O)CCC)[C@H](Cn1c2nc(=O)[nH]c(=O)c-2nc2cc(C)c(C)cc21)OC(=O)CCC [Riboflavin tetrabutyrate] ... 29.1 µM
2. OC[C@@H](O)[C@H](O)[C@H](O)[C@@H](O)CO ... > 45.8 µM
3. CC(C)Cc1ccc(C(C)C(=O)OCc2ccccn2)cc1 (stereo unspecified) ... > 45.8 µM
4. Cl[C@H]1[C@H](Cl)[C@@H](Cl)[C@@H](Cl)[C@H](Cl)[C@H]1Cl ... > 45.8 µM
5. C#C[C@]1(O)CC[C@H]2[C@@H]3CCC4=Cc5oncc5C[C@]4(C)[C@H]3CC[C@@]21C ... > 45.8 µM
6. COc1ccccc1OC(=O)Oc1ccccc1OC [Guaiacol carbonate] ... > 45.8 µM
7. CCOC(=O)[C@H](C)C[C@@H](Cc1ccc(-c2ccccc2)cc1)NC(=O)CCC(=O)O ... > 45.8 µM
8. CCC1(C)CC(=O)NC(=O)C1 [Bemegride] ... > 45.8 µM
9. O=[N+]([O-])c1ccc([As](=O)(O)O)cc1 ... > 45.8 µM
10. C=CCN1CC[C@]23c4c5ccc(O)c4O[C@H]2C(=O)CC[C@@]3(O)[C@H]1C5 ... > 45.8 µM
11. CCCS(=O)(=O)Nc1ccc(F)c(C(=O)c2c[nH]c3ncc(-c4ccc(Cl)cc4)cc23)c1F ... > 45.8 µM
12. CC(=C(CCOC(=O)C(C)C)SSC(CCOC(=O)C(C)C)=C(C)N(C=O)Cc1cnc(C)nc1N)N(C=O)Cc1cnc(C)nc1N ... > 45.8 µM
13. CCCCC[C@H](O)/C=C/[C@H]1[C@H](O)CC(=O)[C@@H]1C/C=C\CCCC(=O)O [Prostaglandin E2] ... 29.1 µM
14. Cc1c(C(=O)Nc2ccc(N3C[C@@H](C)O[C@@H](C)C3)nc2)cccc1-c1ccc(OC(F)(F)F)cc1 ... 10.3 µM
15. CCCCNc1ccc(C(=O)OCCOCCOCCOCCOCCOCCOCCOCCOCCOC)cc1 [Benzonatate] ... > 45.8 µM
16. COc1cc2c(cc1Cc1cccc(Cl)c1F)c(=O)c(C(=O)O)cn2[C@H](CO)C(C)C ... 18.3 µM

---

Test system: HCT116
assay_conditions: 72 h; ICRF193 200 nM
endpoint_label: IC50 cell viability

1) O=[N+]([O-])c1cc(I)c(O)c(I)c1 ... > 45.8 µM
2) C=C[C@@H]1C[C@]1(NC(=O)[C@@H]1C[C@@H](Oc2ncc(OC)c3ccc(Cl)cc23)CN1C(=O)[C@@H](NC(=O)OC(C)(C)C)C(C)(C)C)C(=O)NS(=O)(=O)C1CC1 ... 20.6 µM
3) NCCCCCC(=O)O ... > 45.8 µM
4) C[C@]12C=CC(=O)C=C1CC[C@H]1[C@@H]3C[C@@H](O)[C@](O)(C(=O)CO)[C@@]3(C)C[C@H](O)[C@@]12F ... > 45.8 µM
5) COc1ccc(-c2c(Cl)ncn2-c2ccc(S(N)(=O)=O)cc2)cc1F ... > 45.8 µM
6) O=C(Nc1cccc(C2=NCCN2)c1)Nc1cccc(C2=NCCN2)c1 [Imidocarb dipropionate] ... > 45.8 µM
7) CCc1cc2c(cc1CC)CC(NC[C@H](O)c1ccc(O)c3[nH]c(=O)ccc13)C2 [Indacaterol (maleate)] ... 20.6 µM
8) Clc1cccc(C(c2ccc3[nH]cnc3c2)n2ccnc2)c1 (stereo unspecified) ... > 45.8 µM
9) CN(Cc1ccc(C(C)(C)C)cc1)Cc1cccc2ccccc12 ... > 45.8 µM
10) Nc1ccc([As](=O)(O)O)cc1 ... > 45.8 µM
11) C[C@H](CS)C(=O)N1CCC[C@H]1C(=O)O ... > 45.8 µM
12) O=C(OCC1(COC(=O)c2cccnc2)CCCC(COC(=O)c2cccnc2)(COC(=O)c2cccnc2)C1O)c1cccnc1 ... > 45.8 µM
13) CC/C(=C(/CC)c1ccc(OP(=O)(O)O)cc1)c1ccc(OP(=O)(O)O)cc1 [Fosfestrol tetrasodium] ... > 45.8 µM
14) C#C[C@]1(OC(C)=O)CC[C@H]2[C@@H]3CCC4=CC(=NO)CC[C@@H]4[C@H]3CC[C@@]21CC (mixture of isomers) [Norgestimate] ... 29.1 µM
15) CC[N+](C)(CC)CCOC(=O)C(O)(c1ccccc1)c1ccccc1 [Benzactyzine methobromide] ... > 45.8 µM
16) CCCCCCCCCCCCCC(=O)OC(C)C ... > 45.8 µM

---

Tested on: HCT116
experiment_notes: efficacy (maximum % inhibition of viability vs DMSO); higher = more cytotoxic
assay_conditions: 72 h; ICRF193 0 nM
Structures can show the parent of a compound that is named as a salt.
endpoint_label: efficacy

1) O=c1ccc2ccc(OCCCCN3CCN(c4cccc5sccc45)CC3)cc2[nH]1 ... 102%
2) COc1cc2nccc(Oc3ccc(NC(=O)C4(C(=O)Nc5ccc(F)cc5)CC4)cc3)c2cc1OC [Cabozantinib] ... 58.4%
3) C[C@H]1O[C@@H](O[C@H]2[C@@H](O)C[C@H](O[C@H]3[C@@H](O)C[C@H](O[C@H]4CC[C@@]5(C)[C@H](CC[C@@H]6[C@@H]5C[C@@H](O)[C@]5(C)[C@@H](C7=CC(=O)OC7)CC[C@]65O)C4)O[C@@H]3C)O[C@@H]2C)C[C@H](O)[C@@H]1O ... 76.2%
4) C=CC(=O)Nc1cc(Nc2nccc(-c3cn(C)c4ccccc34)n2)c(OC)cc1N(C)CCN(C)C [Osimertinib mesylate] ... 142%
5) COc1cc2c(cc1O)CCN[C@]21CS[C@@H]2c3c(OC(C)=O)c(C)c4c(c3[C@H](COC1=O)N1[C@@H]2[C@H]2c3c(cc(C)c(OC)c3O)C[C@@H]([C@@H]1O)N2C)OCO4 ... 57.2%
6) CC(C)c1nc(CN(C)C(=O)N[C@@H](CCN2CCOCC2)C(=O)N[C@H](CC[C@H](Cc2ccccc2)NC(=O)OCc2cncs2)Cc2ccccc2)cs1 [Cobicistat] ... 40.1%
7) C[C@@H](O[C@H]1OCCN(Cc2n[nH]c(=O)[nH]2)[C@H]1c1ccc(F)cc1)c1cc(C(F)(F)F)cc(C(F)(F)F)c1 [Aprepitant] ... 113%
8) C[C@](C#N)(COc1cc(C#N)ccc1C(F)(F)F)NC(=O)c1ccc(SC(F)(F)F)cc1 ... 98.1%
9) OCCN1CCN(CCCN2c3ccccc3Sc3ccc(Cl)cc32)CC1 ... 108%
10) CC(C)(C)c1cc(C(C)(C)C)c(NC(=O)c2c[nH]c3ccccc3c2=O)cc1O ... 96.4%
11) CC[C@@]1(O)C(=O)OCc2c1cc1n(c2=O)Cc2c-1nc1cc(F)c(C)c3c1c2[C@@H](N)CC3 ... 60%
12) C/C(=C(/OCCOc1ccc(Cl)cc1)c1ccc(Cl)cc1Cl)n1ccnc1 ... 41.1%
13) C[C@@H]1O[C@@H](O[C@H]2C[C@@H](O)[C@]3(CO)[C@H]4[C@H](O)C[C@]5(C)[C@@H](C6=CC(=O)OC6)CC[C@]5(O)[C@@H]4CC[C@]3(O)C2)[C@H](O)[C@H](O)[C@H]1O [Ouabain octahydrate] ... 104%

meta.source: the supplement of paper PMC12137928
